# TARGET UNDER TEST: HLA-B*18:01
# METHOD DESCRIPTION: IEDB peptide-MHC binding, purified MHC/competitive/fluorescence; filed as Kd, often an IC50 or EC50 that approximates it; bounds were set here for any values at or beyond the usual limits of such assays
# TEST SETTINGS: source organism: Vaccinia virus WR
ATTRIBUTE MEASURED: pKd
Scale: negative log10 of molar concentration, which is what pKd denotes.

Lookup: Request the reported pKd associated with `NYFNRMFHF`
Found: 6.05

====

# TARGET UNDER TEST: HLA-B*18:01
# METHOD DESCRIPTION: IEDB peptide-MHC binding, purified MHC/direct/fluorescence; filed as Kd, often an IC50 or EC50 that approximates it; bounds were set here for any values at or beyond the usual limits of such assays
# TEST SETTINGS: source organism: Burkholderia mallei ATCC 23344
ATTRIBUTE MEASURED: Kd

Lookup: Query: Kd; subject: `MVFGRFSFA`
Found: ≥ 20 µM

====

# TARGET UNDER TEST: HLA-B*15:17
# METHOD DESCRIPTION: IEDB peptide-MHC binding, purified MHC/direct/fluorescence; filed as Kd, often an IC50 or EC50 that approximates it; bounds were set here for any values at or beyond the usual limits of such assays
# TEST SETTINGS: source organism: Vibrio cholerae O139
pKd: −log10 of the molar value.
ATTRIBUTE MEASURED: pKd

Lookup: What pKd value was documented for this sequence, `EKDSNHNVL` ?
Found: ≤ 4.70

====

# TARGET UNDER TEST: HLA-A*24:03
# METHOD DESCRIPTION: IEDB peptide-MHC binding, purified MHC/direct/fluorescence; filed as Kd, often an IC50 or EC50 that approximates it; bounds were set here for any values at or beyond the usual limits of such assays
# TEST SETTINGS: source organism: Amur virus
ATTRIBUTE MEASURED: pKd
Worth noting: pKd values are minus log10 of concentrations stated in mol/L.

Lookup: Form: Entry = `QYEKDPDEL` | System = HLA-A*24:03 | pKd = ____
Found: 4.89

====

# TARGET UNDER TEST: HLA-A*03:01
# METHOD DESCRIPTION: IEDB peptide-MHC binding, purified MHC/direct/fluorescence; filed as Kd, often an IC50 or EC50 that approximates it; bounds were set here for any values at or beyond the usual limits of such assays
# TEST SETTINGS: source organism: Escherichia coli O157:H7
ATTRIBUTE MEASURED: Kd

# annotated cases, reported Kd shown
| SEQ | OBSERVED RESULT |
| --- | --- |
| VVPLYDTPL | ≥ 20 µM |
| FIVEHINAM | ≥ 20 µM |

# ---- query sequence ----
Lookup: Would you kindly share the measured Kd for `VSRDFDDVY` ?
Found: ≥ 20 µM

====

# TARGET UNDER TEST: HLA-A*69:01
# METHOD DESCRIPTION: IEDB peptide-MHC binding, purified MHC/competitive/fluorescence; filed as Kd, often an IC50 or EC50 that approximates it; bounds were set here for any values at or beyond the usual limits of such assays
# TEST SETTINGS: source organism: Cryptosporidium parvum Iowa II
ATTRIBUTE MEASURED: Kd

Lookup: Look up Kd: `RIYKRSLKL`
Found: ≥ 20 µM

====

# TARGET UNDER TEST: HLA-A*02:01
# METHOD DESCRIPTION: IEDB peptide-MHC binding, purified MHC/competitive/radioactivity; filed as Kd, often an IC50 or EC50 that approximates it; bounds were set here for any values at or beyond the usual limits of such assays
# TEST SETTINGS: source organism: Hepatitis B virus subtype ayw
pKd: −log10 of the molar value.
ATTRIBUTE MEASURED: pKd

Lookup: Please give the measured pKd for this sequence: `LLGCAANWI`
Found: ≤ 5.30

====

# TARGET UNDER TEST: HLA-A*30:01
# METHOD DESCRIPTION: IEDB peptide-MHC binding, purified MHC/competitive/radioactivity; filed as Kd, often an IC50 or EC50 that approximates it; bounds were set here for any values at or beyond the usual limits of such assays
# TEST SETTINGS: source organism: Dengue virus 2 Peru/IQT2913/1996
Each entry below carries its recorded Kd.
Report as a plain number; the unit nM is understood.

| SEQ | UNIT TEXT | Kd |
| --- | --- | --- |
| RRRTAGMII | nM | 4830 |

Would you kindly look at the next entry?
Lookup: Consider the sequence `KARNTPFNM` and give its measured Kd.
Found: 169

====

# TARGET UNDER TEST: HLA-A*01:01
# METHOD DESCRIPTION: IEDB peptide-MHC binding, purified MHC/direct/fluorescence; filed as Kd, often an IC50 or EC50 that approximates it; bounds were set here for any values at or beyond the usual limits of such assays
# TEST SETTINGS: source organism: Human immunodeficiency virus 1
ATTRIBUTE MEASURED: pKd
Scale for pKd: -log10 of concentration given in mol/L; no unit attached.

Lookup: Which pKd is reported for this sequence? `TVLDVGDAY`
Found: 4.99

====

# TARGET UNDER TEST: HLA-B*46:01
# METHOD DESCRIPTION: IEDB peptide-MHC binding, purified MHC/competitive/fluorescence; filed as Kd, often an IC50 or EC50 that approximates it; bounds were set here for any values at or beyond the usual limits of such assays
# TEST SETTINGS: source organism: Burkholderia pseudomallei K96243
ATTRIBUTE MEASURED: Kd

Lookup: Sample `LMRRFRFTV` — what was its Kd?
Found: ≥ 20 µM

====

# TARGET UNDER TEST: HLA-A*26:02
# METHOD DESCRIPTION: IEDB peptide-MHC binding, purified MHC/competitive/fluorescence; filed as Kd, often an IC50 or EC50 that approximates it; bounds were set here for any values at or beyond the usual limits of such assays
# TEST SETTINGS: source organism: Vaccinia virus WR
ATTRIBUTE MEASURED: Kd

Lookup: Which Kd value is on record for `NYFNRMFHF` ?
Found: ≥ 20 µM

====

# TARGET UNDER TEST: HLA-B*07:02
# METHOD DESCRIPTION: IEDB peptide-MHC binding, purified MHC/competitive/fluorescence; bounds were set here for any values at or beyond the usual limits of such assays
# TEST SETTINGS: source organism: Ateles geoffroyi
ATTRIBUTE MEASURED: IC50 (nM)
Record the value in nM, omitting the unit from your answer.

Lookup: Reported IC50 for `LPADPASVL` : what is it?
Found: 134

====

# TARGET UNDER TEST: HLA-A*68:02
# METHOD DESCRIPTION: IEDB peptide-MHC binding, purified MHC/competitive/fluorescence; filed as Kd, often an IC50 or EC50 that approximates it; bounds were set here for any values at or beyond the usual limits of such assays
# TEST SETTINGS: source organism: Giardia lamblia ATCC 50803
pKd: −log10 of the molar value.
Listing: pKd of selected sequences

| SEQ | ATTRIBUTE MEASURED | OBSERVED RESULT |
| --- | --- | --- |
| ISKANWMTY | pKd | ≤ 4.70 |

From here, focus on the item given below.
Lookup: Query pKd on HLA-A*68:02 for `IANTTDHFF`
Found: ≤ 4.70

====

# TARGET UNDER TEST: HLA-A*02:17
# METHOD DESCRIPTION: IEDB peptide-MHC binding, purified MHC/competitive/radioactivity; filed as Kd, often an IC50 or EC50 that approximates it; bounds were set here for any values at or beyond the usual limits of such assays
# TEST SETTINGS: source organism: Dengue virus 1 Singapore/S275/1990
Catalogue of pKd readings, one per entry.
Scale: pKd equals -log10([C]), with [C] in mol/L.

| SEQ | pKd |
| --- | --- |
| LMLLALIAVL | 5.66 |
| TMKEKSWLV | 7.39 |
| KLARASFIEV | 6.15 |

Next sequence, please.
Lookup: Any idea what its pKd is? The sequence is `GLLFMILTV`
Found: 4.84

====

# TARGET UNDER TEST: HLA-A*69:01
# METHOD DESCRIPTION: IEDB peptide-MHC binding, purified MHC/direct/fluorescence; filed as Kd, often an IC50 or EC50 that approximates it; bounds were set here for any values at or beyond the usual limits of such assays
# TEST SETTINGS: source organism: Salmonella enterica subsp. enterica serovar Typhimurium
ATTRIBUTE MEASURED: pKd
Keep it numeric: pKd is minus log10 of the concentration in mol/L.

| SEQ | OBSERVED RESULT |
| --- | --- |
| GMFGGCFAA | 5.56 |

Lookup: // lookup pKd | system=HLA-A*69:01 | key= `GMKAFTAAV`
Found: 5.45
